Target: nectin-1 C-terminal 10mer peptide, N-terminally FITC-conjugated
Experiment: fluorescence polarisation
Measured property: Kd (µM)
Use µM as the unit, but write only the number.

Query string: Form field: reported Kd of human afadin PDZ domain (domain or fragment) IITVTLKKQNGMGLSIVAAKGAGQDKLGIYVKSVVKGGAADVDGRLAAGDQLLSVDGRSLVGLSQERAAELMTRTSSVVTLEVAKQG
Result string: 3
